- Test system: Plasmodium berghei
- measurementProtocol: Luciferase/luciferin-expressing antifolate-resistant parasites were used to infect a culture of HepG2 cells that were pre-incubated with compounds. Infected hepatocytes emit light due to the luciferase reaction. Assay results are presented as the percent inhibition of light emission compared to control. […]
- Assay type: functional
- recordedConditions: sporozoite, PBLUC_HILL_SLOPE 24.2, PBLUC_R_SQUARED 0.462, read-out: LUCIFERASE INFECTION ASSAY - IC50
experimentalEndpoint: pIC50
Answer as the number alone; pIC50 is minus log10 of concentration in mol/L.

Task item: Fill in the blank: the reported pIC50 of Cc1c(C(=O)OC(C(=O)c2ccccc2)c2ccccc2)sc2ncn(C)c(=O)c12 (stereo unspecified) is ____.
Reply: 5.10

====

- Tested on: Plasmodium berghei
- measurementProtocol: Luciferase/luciferin-expressing antifolate-resistant parasites were used to infect a culture of HepG2 cells that were pre-incubated with compounds. Infected hepatocytes emit light due to the luciferase reaction. Assay results are presented as the percent inhibition of light emission compared to control. […]
- Assay type: functional
- recordedConditions: sporozoite, PBLUC_HILL_SLOPE 20.8, 17.7, PBLUC_R_SQUARED 0.125, 0.439, read-out: LUCIFERASE INFECTION ASSAY - IC50
experimentalEndpoint: pIC50
Reminder that pIC50 means the negative base-10 logarithm of the concentration expressed in mol/L.

Task item: Would you kindly share the measured pIC50 for CC(OC(=O)c1ccccc1Nc1ccc(F)cc1)C(=O)N1CCCC1 (stereo unspecified) ?
Reply: 5.05

====

- Test system: Plasmodium berghei
- measurementProtocol: Luciferase/luciferin-expressing antifolate-resistant parasites were used to infect a culture of HepG2 cells that were pre-incubated with compounds. Infected hepatocytes emit light due to the luciferase reaction. Assay results are presented as the percent inhibition of light emission compared to control. […]
- Format: functional
- recordedConditions: sporozoite, PBLUC_HILL_SLOPE 10.5, PBLUC_R_SQUARED 0.782, read-out: LUCIFERASE INFECTION ASSAY - IC50
experimentalEndpoint: IC50 (µM)
# output: bare number, implied unit µM

Task item: May I ask what IC50 has been recorded for CCCn1c(-c2cccs2)nc2c(c(=O)c3ccccc3n2C)c1=O ?
Reply: 3

====

- System: Plasmodium berghei
- measurementProtocol: Luciferase/luciferin-expressing antifolate-resistant parasites were used to infect a culture of HepG2 cells that were pre-incubated with compounds. Infected hepatocytes emit light due to the luciferase reaction. Assay results are presented as the percent inhibition of light emission compared to control. […]
- Type: functional
- recordedConditions: sporozoite, PBLUC_HILL_SLOPE 3, PBLUC_R_SQUARED 0.293, read-out: LUCIFERASE INFECTION ASSAY - IC50
experimentalEndpoint: pIC50
Scale: negative log10 of molar concentration, which is what pIC50 denotes.

Task item: Tell me the measured pIC50 of N#Cc1cc(-c2nc(-c3ccccc3)cs2)c(N)[nH]c1=S , please.
Reply: 5.20

====

Would you mind telling me the reported IC90 of each entry?
- Tested on: Plasmodium berghei
- measurementProtocol: Luciferase/luciferin-expressing antifolate-resistant parasites were used to infect a culture of HepG2 cells that were pre-incubated with compounds. Infected hepatocytes emit light due to the luciferase reaction. Assay results are presented as the percent inhibition of light emission compared to control. […]
- Format: functional
- recordedConditions: sporozoite, read-out: LUCIFERASE INFECTION ASSAY - IC90

Task item: Return IC90 measured with Plasmodium berghei given this compound: Cc1nc(-c2ccccn2)nc(NCCc2ccccc2)c1Cl
Reply: 5.38 µM

Task item: Follow-up item: Cc1cc(C)c(OCC(=O)N2CCCC2c2nc3ccccc3[nH]2)c(C)c1 (stereo unspecified)
Reply: > 10 µM

Task item: Cool, now Cc1cccc(OC2=C(Cl)C(=O)c3ccccc3C2=O)c1
Reply: > 11 µM

Task item: Request: COc1cncc(-c2cncc(Nc3cccc(Cl)c3)c2)c1
Reply: 9.85 µM

Task item: Field entry: C(=C(c1nc2ccccc2s1)c1nc2ccccc2s1)c1ccccn1
Reply: > 10 µM

Task item: Here is the next compound: CCNc1ccc(S(=O)(=O)C(F)(F)F)cc1NC(=O)/C=C/c1ccc(OC)c(OC)c1
Reply: > 10 µM

Task item: Another: O=C(NNC(=O)c1cc2cc(Cl)ccc2[nH]1)c1ccc(S(=O)(=O)N2CCCC2)cc1
Reply: 9.83 µM

Task item: Try this compound next: Cc1ccc(NNC(=O)c2cnc3c(c2)c(C)nn3C)cc1Cl
Reply: > 10 µM

Task item: Also, Cc1ccc2cc(CN(CC(C)C)C(=O)c3cccc(Cl)c3)c(=O)[nH]c2c1 please.
Reply: 4.61 µM

Task item: Next record, please: CSc1nc2ccc(NC(=O)c3[nH]c4c(c3C)C(=O)CCC4)cc2s1
Reply: > 10 µM

Task item: Also, Cc1ccccc1NC(=O)Nc1nc(C(N)COCc2ccccc2)cs1 (stereo unspecified) please.
Reply: > 8.63 µM

====

- Test system: Plasmodium berghei
- measurementProtocol: Luciferase/luciferin-expressing antifolate-resistant parasites were used to infect a culture of HepG2 cells that were pre-incubated with compounds. Infected hepatocytes emit light due to the luciferase reaction. Assay results are presented as the percent inhibition of light emission compared to control. […]
- Type: functional
- recordedConditions: sporozoite, HEPG2TOX_HILL_SLOPE 1.36, HEPG2TOX_R_SQUARED 0.938, PBLUC_HILL_SLOPE 1.78, PBLUC_R_SQUARED 0.322, read-out: LUCIFERASE INFECTION ASSAY - IC50
experimentalEndpoint: pIC50
Quick note: pIC50 values are minus log10 of concentrations in mol/L.

Task item: Need pIC50 of O=C(c1ccc2nc[nH]c2c1)N1CCc2nc(NCc3cccc(Oc4ccccc4)c3)ncc2C1 , thanks.
Reply: 5.62

====

- Test system: Plasmodium berghei
- measurementProtocol: Luciferase/luciferin-expressing antifolate-resistant parasites were used to infect a culture of HepG2 cells that were pre-incubated with compounds. Infected hepatocytes emit light due to the luciferase reaction. Assay results are presented as the percent inhibition of light emission compared to control. […]
- Format: functional
- recordedConditions: sporozoite, PBLUC_HILL_SLOPE 1.93, PBLUC_R_SQUARED 0.0355, read-out: LUCIFERASE INFECTION ASSAY - IC50
experimentalEndpoint: IC50

Task item: # input compound: Nc1ncc(-c2ccc(-c3ccccc3)cc2F)cc1-c1cncc2ccccc12 ; wanted: its IC50
Reply: > 8.43 µM

====

- System: Plasmodium berghei
- measurementProtocol: Luciferase/luciferin-expressing antifolate-resistant parasites were used to infect a culture of HepG2 cells that were pre-incubated with compounds. Infected hepatocytes emit light due to the luciferase reaction. Assay results are presented as the percent inhibition of light emission compared to control. […]
- Type: functional
- recordedConditions: sporozoite, FFLUC_HILL_SLOPE 16.3, FFLUC_R_SQUARED 0.426, PBLUC_HILL_SLOPE 3.46, PBLUC_R_SQUARED 0.601, read-out: LUCIFERASE INFECTION ASSAY - IC50
experimentalEndpoint: pIC50
Here pIC50 is given on a logarithmic scale as minus log10 of the concentration in mol/L.

Task item: Please look up its pIC50: O=C(CN1CCC(c2c[nH]c3ccccc23)CC1)Nc1ccc(Cl)c([N+](=O)[O-])c1
Reply: 5.31

====

- System: Plasmodium berghei
- measurementProtocol: Luciferase/luciferin-expressing antifolate-resistant parasites were used to infect a culture of HepG2 cells that were pre-incubated with compounds. Infected hepatocytes emit light due to the luciferase reaction. Assay results are presented as the percent inhibition of light emission compared to control. […]
- Format: functional
- recordedConditions: sporozoite, HEPG2TOX_HILL_SLOPE 8.78, HEPG2TOX_R_SQUARED 0.227, PBLUC_HILL_SLOPE 3.21, PBLUC_R_SQUARED 0.612, read-out: LUCIFERASE INFECTION ASSAY - IC50
experimentalEndpoint: IC50 (µM)
Answer in µM, number only, no unit symbol.

Task item: Report IC50 for CCN1/C(=C\C(=O)c2ccccc2Oc2ccccc2)C(C)(C)c2c1ccc1ccccc21 please.
Reply: 4.25

====

- Test system: Plasmodium berghei
- measurementProtocol: Luciferase/luciferin-expressing antifolate-resistant parasites were used to infect a culture of HepG2 cells that were pre-incubated with compounds. Infected hepatocytes emit light due to the luciferase reaction. Assay results are presented as the percent inhibition of light emission compared to control. […]
- Type: functional
- recordedConditions: sporozoite, PBLUC_HILL_SLOPE 2.49, PBLUC_R_SQUARED 0.1, read-out: LUCIFERASE INFECTION ASSAY - IC50
experimentalEndpoint: IC50
Answer shape: numeric part, then the unit.

Task item: I have this compound here, CC1N(C)c2cc(NC(=O)/C=C/c3ccc(F)cc3)ccc2C1(C)C (stereo unspecified) , and I need its recorded IC50.
Reply: 5.32 µM

====

- Test system: Plasmodium berghei
- measurementProtocol: Luciferase/luciferin-expressing antifolate-resistant parasites were used to infect a culture of HepG2 cells that were pre-incubated with compounds. Infected hepatocytes emit light due to the luciferase reaction. Assay results are presented as the percent inhibition of light emission compared to control. […]
- Format: functional
- recordedConditions: sporozoite, PBLUC_HILL_SLOPE 1.82, PBLUC_R_SQUARED 0.488, read-out: LUCIFERASE INFECTION ASSAY - IC50
experimentalEndpoint: IC50 (µM)
Entry rule: numbers only, all in µM.

Task item: # input compound: CCCCNc1nc2ccccc2n1CC(=O)Nc1ccc(S(=O)(=O)N2CCCC2)cc1 ; wanted: its IC50
Reply: 3.67
